Provenance of the data: ChEMBL document CHEMBL1201862

# System: A498
# ASSAY DETAILS: NCI tumour cell line growth inhibition, 48 h
Activity calls are given as the source filed them. Rule as the data show it: active = GI50 up to about 1.1 µM and inactive = higher.
Reported values of GI50 for individual entries
ASSAY READOUT: GI50

INSERT INTO results (molecule, result) VALUES
  ('COc1ccc(NS(=O)(=O)c2ccc3ncn(NS(=O)(=O)c4ccc(I)cc4)c(=O)c3c2)cc1', '> 100 µM (inactive)'),
  ('COC(=O)C1=C(O)C(C(=O)OC)[C@]2(O)[C@H](C(=O)OC)[C@H]1C[C@@H](c1ccc(O)cc1)[C@H]2C(=O)OC (stereo partly drawn)', '33.3 µM (inactive)'),
  ('COc1ccc(NC=O)c(C(=O)CCNC(C)=O)c1', '> 100 µM (inactive)'),
  ('CNS(=O)(=O)NNS(=O)(=O)c1ccccc1', '> 100 µM (inactive)'),
  ('CC(=O)Nc1ccc(-c2nnc(SCC(=O)Nc3ccc(Cl)cc3)o2)cc1', '14.8 µM (inactive)'),
  ('N#CC12CNCC1CN=N2 (stereo not drawn)', '> 100 µM (inactive)'),
  ('Cc1nc(-c2ccccc2)c(C)n2c1nc1ccccc12', '27.2 µM (inactive)'),
  ('CSC(SC)=C1Sc2cccc(Cl)c2S1', '76.4 µM (inactive)'),
  ('CNC=O', '> 9710 µM (inactive)'),
  ('COc1cc(/C=C/c2nc(N)nnc2C)cc(OC)c1OC', '18 µM (inactive)'),
  ('O=C(Nc1cc([N+](=O)[O-])cc([N+](=O)[O-])c1)OC1C2CCC1C1OC1C2 (stereo not drawn)', '> 50 µM (inactive)'),
  ('CCCCCCCCCCCCCCCCCC(=O)OCC(CN(C)CCN(C)C)OC(=O)CCCCCCCCCCCCCCCCC (stereo not drawn)', '> 100 µM (inactive)'),
  ('O=C1NC(=S)S/C1=C/c1ccco1', '11.1 µM (inactive)'),
  ('CC1CCC(C(C)(C)c2ccccc2)C(=O)C1 (stereo not drawn)', '> 100 µM (inactive)'),
  ('COC(=O)c1c(C)cccc1/C=C1/Cc2c(C)cccc2C1=O', '88.9 µM (inactive)'),
  ('CCOP(=O)(OCC)c1cc2cc(O)ccc2oc1=O', '> 100 µM (inactive)'),
  ('C[Si](C)(C)OC1CC(=O)OC1n1cc(F)c(=O)[nH]c1=O (stereo not drawn)', '> 100 µM (inactive)'),
  ('O=C1c2cc3ccccc3cc2C2(c3ccc(Cl)cc3)N[C@H]3CCCC[C@@H]3N12 (stereo partly drawn)', '18.3 µM (inactive)'),
  ('CC(C)(C)NC(=O)C12C3C4C1C1C2C3C41C(=O)NC(C)(C)C (stereo not drawn)', '> 100 µM (inactive)'),
  ('Cc1ccnc2sc3ccccc3c(=O)c12', '29.8 µM (inactive)'),
  ('COc1cc2c[n+](C)c3c4ccccc4ccc3c2cc1OC', '37.4 µM (inactive)'),
  ('CN(C)c1ccc(/N=N/c2ccccn2)cc1', '22.1 µM (inactive)'),
  ('Brc1ccc2c(c1)C1=C(CO2)Cc2ccccc2O1', '27.4 µM (inactive)');

---

# Tested on: SK-OV-3
# ASSAY DETAILS: NCI tumour cell line growth inhibition, 48 h
Active and inactive are the calls of the source. No stated cut-off is given here; in the data, active = GI50 up to about 1.1 µM and inactive = higher.
Classes used: active, inactive

INSERT INTO results (molecule, test_target, class_name) VALUES
  ('NC(=O)C1CCCNC1 (stereo not drawn)', 'SK-OV-3', 'inactive'),
  ('C=C(CCCCC)CN1CCCC1[C@@](C)(O)CC(=O)OCC (stereo partly drawn)', 'SK-OV-3', 'inactive'),
  ('COc1cc2c(cc1OC)C1Cc3cc(OC)c(OC)cc3C(C2)N1C', 'SK-OV-3', 'inactive'),
  ('O=C(O)C1CCCCN1c1ccccc1[N+](=O)[O-] (stereo not drawn)', 'SK-OV-3', 'inactive'),
  ('COc1ccc(C[C@H](N)C(=O)N2C[C@H](CO)C[C@H](n3ccc(=O)[nH]c3=O)C2)cc1', 'SK-OV-3', 'inactive'),
  ('OC[C@H]1O[C@@H](n2cnc3cncnc32)[C@H](O)[C@@H]1O', 'SK-OV-3', 'active'),
  ('C=C(CO)[C@H]1Oc2ccc(C(C)=O)cc2[C@@H]1O', 'SK-OV-3', 'inactive'),
  ('O=C1/C(=C\c2ccc(O)cc2)CCC/C1=C/c1ccc(Cl)c(Cl)c1', 'SK-OV-3', 'inactive'),
  ('CCOC(=O)c1cn2c(n1)sc1cc(F)ccc12', 'SK-OV-3', 'inactive'),
  ('COC(=O)C1C(C)N1C (stereo not drawn)', 'SK-OV-3', 'inactive'),
  ('CCOc1ccc(NCc2cc(OC)c(OC)c(OC)c2)cc1', 'SK-OV-3', 'inactive'),
  ('CCCCCCCCCCCCCCCCCC(=O)OCC(CN(C)CCN(C)C)OC(=O)CCCCCCCCCCCCCCCCC (stereo not drawn)', 'SK-OV-3', 'inactive'),
  ('COc1ccc(/C(Br)=C2\OC(=O)c3ccccc32)cc1', 'SK-OV-3', 'inactive'),
  ('Cc1cc(N(CCC#N)S(=O)(=O)c2ccccc2)ccc1/C=N/c1ccc(C(=O)O)cc1', 'SK-OV-3', 'inactive'),
  ('O=C1CCCC2=C1CC1=C(CCCC1=O)N2c1ccccc1', 'SK-OV-3', 'inactive'),
  ('CNC=O', 'SK-OV-3', 'inactive'),
  ('C=C(C)c1nc(Oc2ccccc2)nc(Oc2ccccc2)n1', 'SK-OV-3', 'inactive'),
  ('CN(CCc1ccccn1)C(=S)N/N=C/c1ccccn1', 'SK-OV-3', 'active'),
  ('C=C(C(=O)OC1C(CO)OC(OCC2CC[C@@H]3C[C@]4(OC(=O)C3=C)C(C)=CC(=O)C24)C(O)C1O)[C@@H]1CCC(CO)C2C(=O)C=C(C)[C@@]2(O)C1 (stereo partly drawn)', 'SK-OV-3', 'inactive'),
  ('O=C1C(=O)C(Br)(Br)C(Br)=C1Br', 'SK-OV-3', 'inactive'),
  ('COc1cc(C(c2cccc3ccccc23)N2C(=O)CCC2C(=O)O)cc(OC)c1OC (stereo not drawn)', 'SK-OV-3', 'inactive'),
  ('O=C(O)C1=CCCc2ccc3ccccc3c21', 'SK-OV-3', 'inactive'),
  ('Cc1ccc(-n2cc(-c3ccc(Cl)cc3)c3c2N=CN2N=C(c4ccco4)NC32)cc1 (stereo not drawn)', 'SK-OV-3', 'inactive');

---

Reported values of GI50 for individual entries
# Tested on: UACC-62
# ASSAY DETAILS: NCI tumour cell line growth inhibition, 48 h
Active and inactive are the calls of the source. Cut-off read from the data, not from the text of the source: active = GI50 up to about 1.1 µM and inactive = higher.
ASSAY READOUT: GI50

INSERT INTO assay_data (compound, assay_readout, result) VALUES
  ('CNC1(C(=O)O)CC1', 'GI50', '69.2 µM (inactive)'),
  ('CC(=O)N(C)C(C(=O)N1CC(C)CC1C(=O)N(C)C1C(=O)NC(CC(C)C)C(=O)N2CC(C)CC2C(=O)NC(CC(C)C)C(=O)N(C)C(C(C)C)C(=O)N2CCCC2C(=O)N(C)C(CC(C)C)C(=O)NCC(=O)OC1C)C(C)C (stereo not given)', 'GI50', '> 100 µM (inactive)'),
  ('O=C(/C=C/c1ccccc1O)c1ccccc1Cl', 'GI50', '67.5 µM (inactive)'),
  ('CCC(C)C1NC(=O)C2CCCN2C(=O)C(CC2CO2)OC(=O)CCNC(=O)C(C)N(C)C(=O)C(C(C)C)N(C)C1=O (stereo not given)', 'GI50', '0.0209 µM (active)'),
  ('C/C(=N\Nc1nc2ccccc2[nH]1)c1ncccn1', 'GI50', '0.0693 µM (active)'),
  ('CNC(=O)OCc1c2ccncc2c(C)c2c1[nH]c1ccc(OC)cc12', 'GI50', '0.16 µM (active)'),
  ('CN(C)Cc1cc(/N=N/c2ccccc2)cc(CN(C)C)c1O', 'GI50', '> 100 µM (inactive)'),
  ('S=C1c2ccc(Cl)cc2-n2cnnc2C2CSCN12 (stereo not given)', 'GI50', '> 100 µM (inactive)'),
  ('COC(=O)c1c(C)cccc1/C=C1/Cc2c(C)cccc2C1=O', 'GI50', '> 100 µM (inactive)'),
  ('CC(O)c1cc2c(s1)C(=O)c1sccc1C2=O (stereo not given)', 'GI50', '0.0519 µM (active)');

---

# Test system: BT-549
# ASSAY DETAILS: NCI tumour cell line growth inhibition, 48 h
Activity calls are given as the source filed them. No stated cut-off is given here; in the data, active = GI50 up to about 1.1 µM and inactive = higher.
Reported values of GI50 for individual entries
ASSAY READOUT: GI50

INSERT INTO results (compound, result) VALUES
  ('O=C1c2cc3ccccc3cc2C2(c3ccc(Cl)cc3)N[C@H]3CCCC[C@@H]3N12 (stereo partly specified)', '20 µM (inactive)'),
  ('COc1cc2nc3n(c(=O)c2cc1OC)-c1ccc([N+](=O)[O-])cc1C3=O', '> 100 µM (inactive)'),
  ('C/C=C\C(CC(=O)O)CN1CCC2=C(C1)C(S(=O)(=O)C(F)(F)F)c1ccccc12 (stereo unspecified)', '> 100 µM (inactive)'),
  ('COC(=O)[C@@H]1C[C@@]23CCCN4CC[C@@]5(c6cccc(OC)c6N(C=O)[C@]15CC2)[C@@H]43', '> 100 µM (inactive)'),
  ('CCC(CO)Nc1nc(NCc2ccccc2)c2ncn(C(C)C)c2n1 (stereo not drawn) [(RS)-ROSCOVITINE]', '18.5 µM (inactive)'),
  ('O=C1NC(=O)[C@@]2(CC[C@@H](O)C2)c2ccncc21 [SESBANINE]', '> 100 µM (inactive)');
